Target: T1, Human OX40 (Sino Biological Inc) (human, UniProt P43489 29-216, limits assumed)
T1 construct: Bought soluble protein used as SPR analyte; also called huOX40
T1 sequence: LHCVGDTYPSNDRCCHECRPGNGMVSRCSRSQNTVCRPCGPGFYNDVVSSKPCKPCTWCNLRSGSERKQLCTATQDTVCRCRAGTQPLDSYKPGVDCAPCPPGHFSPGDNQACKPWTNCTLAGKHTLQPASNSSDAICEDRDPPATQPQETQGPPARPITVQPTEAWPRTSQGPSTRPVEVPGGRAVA
Experiment: SPR (Biacore), antibody captured via anti-human Fc, huOX40 analyte
Description: The binding kinetics of the anti-OX40 antibodies was measured using surface plasmon resonance (SPR) on a Biacore 3000 instrument (GE Healthcare). […] Antibody binding was measured to human OX40 (Sino Biological Inc). […] Sensorgrams for binding of OX40 were recorded using an injection time of 2 minutes with a flow rate of 30 μl/min, at a temperature of 25° C., and with a running buffer of 10 mM HEPES, pH 7.4, 150 mM NaCl, and 0.005% Tween 20. […]
readout label: koff (s⁻¹)
One number for each entry, in s⁻¹.

INSERT INTO results (binder, unit_of_measurement, number) VALUES
  ('3C8.gr.9 (antibody, V domains shown, human Fc) VH: EVQLVQSGAEVKKPGASVKVSCKASGYAFTNYLIEWVRQAPGQGLEWIGVINPGSGDTYYSEKFKGRVTLTRDTSTSTAYLELSSLRSEDTAVYYCARDRLDYWGQGTLVTVSS VL: DIQMTQSPSSLSASVGDRVTITCHASQDISSYIVWYQQKPGKSPKLLIYHGTNLEDGVPSRFSGSGSGTDFTLTISSLQPEDFATYYCVHYAQFPYTFGQGTKVEIK', 's⁻¹', 0.00173);

Lab note: next binder to report on.
Request: Returns the measured koff for the input binder. Input: 1A7.gr.4 (antibody, V domains shown, human Fc) VH: EVQLVQSGAEVKKPGASVKVSCKASGYTFTDSYMSWVRQAPGQGLEWIGDMYPDNGDSSYNQKFRERVTITVDTSTSTAYLELSSLRSEDTAVYYCVLAPRWYFSVWGQGTLVTVSS VL: DIQMTQSPSSLSASVGDRVTITCRASQDISNYLNWYQQKPGKTVKLLIYYTSRLRSGVPSRFSGSGSGTDFTLTISSLQPEDFATYYCQQGHTLPPTFGQGTKVEIK
Response: 0.000163
